Reference for the values: patent US12441726B2

system_tested: UniProt:P51532
assay_overview: ATPase catalytic activity assay (ADP-Glo), BRG-1
run_parameters: 1 h, read-out: BRG1 Max % Inhibition, ADP-Glo, 30 nM BRG-1, 400 μM ATP
Decide using Emax alone. Strictly below 70%: 1 (yes). Equal to or above 70%: 0 (no).

CC(=O)N(C)c1cccc(-c2ccc3cnc(CNC(=O)c4ccc5c(c4)[C@](C)(C#N)COC5)cc3n2)n1 = 1 (yes)
C[C@@]1(C#N)COCc2ccc(C(=O)NCc3cc(N4CC5(CN(c6ccccc6)C5)C4)ccn3)cc21 = 1 (yes)
C[C@@]1(C#N)COCc2ccc(C(=O)NCc3cc4nc(-c5ccnc(C6COC6)n5)ccc4cn3)cc21 = 0 (no)
C[C@@]1(C#N)COCc2ccc(C(=O)NCc3cc4nc(N5CCCC5=O)ccc4cn3)cc21 = 1 (yes)
C[C@@]1(C#N)COCc2ncc(C(=O)NCc3cc4nc(-c5cccc(C6CC6)n5)ccc4nn3)cc21 = 0 (no)
C[C@@]1(C#N)COCc2ccc(C(=O)NCc3cc(C#Cc4ccccc4)c(F)cn3)cc21 = 1 (yes)
COc1c(-c2ccc3cnc(CNC(=O)c4ccc5c(c4)[C@](C)(C#N)COC5)cc3n2)ccc2cnn(C)c12 = 0 (no)
C[C@@]1(C#N)COCc2ccc(C(=O)NCc3cc4nc(-n5ccc(N6CCC6)n5)ccc4cn3)cc21 = 0 (no)
C[C@@]1(F)COCc2ccc(C(=O)NCc3cc4cc(-c5cccc(N6CCC6)n5)cnc4cn3)cc21 = 0 (no)
O=C(NCc1cc2nc(-c3cncc(N4CCC4)n3)ccc2cn1)c1cc(F)c2c(c1)[C@](F)(C(F)F)COC2 = 0 (no)

## Input hey, is Emax for "C[C@@]1(C#N)COCc2ccc(C(=O)NCc3cc(/C(F)=C/c4ccccc4)ccn3)cc21" lower than 70% or not?
## Output 1 (yes)

## Input hey, is Emax for "C[C@@]1(C#N)COCc2ccc(C(=O)NCc3cc4nc(-c5cccc(C6(O)CC6)n5)ccc4cn3)cc21" lower than 70% or not?
## Output 0 (no)

## Input hey, is Emax for "Cn1ccc2nc(-c3ccc4cnc(CNC(=O)c5ccc6c(c5)[C@](C)(C#N)COC6)cc4n3)sc2c1=O" lower than 70% or not?
## Output 0 (no)

----------
system_tested: BRG-1 (Homo sapiens)
Sequence (P51532 whole entry): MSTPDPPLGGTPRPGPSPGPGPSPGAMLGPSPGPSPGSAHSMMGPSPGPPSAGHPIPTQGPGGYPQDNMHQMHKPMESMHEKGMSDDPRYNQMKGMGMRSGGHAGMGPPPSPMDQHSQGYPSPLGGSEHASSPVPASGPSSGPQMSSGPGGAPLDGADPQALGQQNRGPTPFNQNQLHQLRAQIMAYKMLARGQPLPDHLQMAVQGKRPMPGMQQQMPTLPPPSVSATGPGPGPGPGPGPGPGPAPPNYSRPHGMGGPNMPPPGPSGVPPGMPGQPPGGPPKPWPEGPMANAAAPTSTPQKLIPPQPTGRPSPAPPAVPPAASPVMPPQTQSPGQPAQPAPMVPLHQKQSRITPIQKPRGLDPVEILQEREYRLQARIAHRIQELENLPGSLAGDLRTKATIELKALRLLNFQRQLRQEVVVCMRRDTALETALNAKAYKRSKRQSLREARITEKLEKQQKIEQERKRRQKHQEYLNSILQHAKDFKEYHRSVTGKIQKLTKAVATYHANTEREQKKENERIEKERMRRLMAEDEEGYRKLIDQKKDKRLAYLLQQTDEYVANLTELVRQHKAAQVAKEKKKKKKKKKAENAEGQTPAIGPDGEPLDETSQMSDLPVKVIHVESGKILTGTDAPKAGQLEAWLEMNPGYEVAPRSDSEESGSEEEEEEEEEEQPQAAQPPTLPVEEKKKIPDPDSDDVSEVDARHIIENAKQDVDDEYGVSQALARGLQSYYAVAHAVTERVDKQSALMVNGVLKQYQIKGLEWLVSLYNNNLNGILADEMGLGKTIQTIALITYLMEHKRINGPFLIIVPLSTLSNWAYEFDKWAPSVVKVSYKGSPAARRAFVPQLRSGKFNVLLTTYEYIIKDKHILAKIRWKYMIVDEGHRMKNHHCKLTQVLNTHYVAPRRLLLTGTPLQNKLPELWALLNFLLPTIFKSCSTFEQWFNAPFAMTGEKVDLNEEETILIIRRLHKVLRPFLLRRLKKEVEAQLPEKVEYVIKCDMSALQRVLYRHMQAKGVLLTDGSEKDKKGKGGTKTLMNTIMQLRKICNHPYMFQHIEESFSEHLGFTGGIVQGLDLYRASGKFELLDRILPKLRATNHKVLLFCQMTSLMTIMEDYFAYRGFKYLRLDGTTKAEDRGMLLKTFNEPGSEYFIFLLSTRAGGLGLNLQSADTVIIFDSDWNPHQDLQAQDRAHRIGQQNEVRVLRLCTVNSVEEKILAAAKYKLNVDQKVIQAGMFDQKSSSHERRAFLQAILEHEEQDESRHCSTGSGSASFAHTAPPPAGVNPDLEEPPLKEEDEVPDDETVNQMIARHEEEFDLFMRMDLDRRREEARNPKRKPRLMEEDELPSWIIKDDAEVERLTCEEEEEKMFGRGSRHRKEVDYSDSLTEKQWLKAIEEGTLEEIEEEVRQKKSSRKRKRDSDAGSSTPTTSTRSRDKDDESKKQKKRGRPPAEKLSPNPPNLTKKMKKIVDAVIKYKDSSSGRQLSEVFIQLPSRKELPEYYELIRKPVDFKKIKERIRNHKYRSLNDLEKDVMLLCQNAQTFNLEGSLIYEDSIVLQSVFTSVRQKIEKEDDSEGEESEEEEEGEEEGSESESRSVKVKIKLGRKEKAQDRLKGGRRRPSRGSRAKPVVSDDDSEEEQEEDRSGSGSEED
assay_overview: ATPase catalytic activity assay (ADP-Glo), BRG-1
pIC50: −log10 of the molar value.
observation_type: pIC50

C[C@@]1(C#N)COCc2ccc(C(=O)NCc3cc([C@H]4C[C@H](c5cccc(N6CCOCC6)n5)C4)ccn3)cc21 = 6.00 to 6.30
CN1CCN(c2nccc(-c3ccc4cnc(CNC(=O)c5ccc6c(c5)[C@](C)(F)COC6)cc4n3)n2)CC1=O = 6.30 to 7.00

Now take the following compound into account.
## Input Please respond with reported pIC50 (system BRG-1 (Homo sapiens)) for "C[C@@]1(C#N)COCc2ccc(C(=O)NCc3cc4nc(-c5cccc6c5ccn6CC(F)F)ccc4cn3)cc21" .
## Output 6.30 to 7.00

----------
Assignment: determine reported BRM Max % Inhibition for the given compounds.
system_tested: BRM (Homo sapiens, UniProt P51531)
Sequence (P51531 whole entry): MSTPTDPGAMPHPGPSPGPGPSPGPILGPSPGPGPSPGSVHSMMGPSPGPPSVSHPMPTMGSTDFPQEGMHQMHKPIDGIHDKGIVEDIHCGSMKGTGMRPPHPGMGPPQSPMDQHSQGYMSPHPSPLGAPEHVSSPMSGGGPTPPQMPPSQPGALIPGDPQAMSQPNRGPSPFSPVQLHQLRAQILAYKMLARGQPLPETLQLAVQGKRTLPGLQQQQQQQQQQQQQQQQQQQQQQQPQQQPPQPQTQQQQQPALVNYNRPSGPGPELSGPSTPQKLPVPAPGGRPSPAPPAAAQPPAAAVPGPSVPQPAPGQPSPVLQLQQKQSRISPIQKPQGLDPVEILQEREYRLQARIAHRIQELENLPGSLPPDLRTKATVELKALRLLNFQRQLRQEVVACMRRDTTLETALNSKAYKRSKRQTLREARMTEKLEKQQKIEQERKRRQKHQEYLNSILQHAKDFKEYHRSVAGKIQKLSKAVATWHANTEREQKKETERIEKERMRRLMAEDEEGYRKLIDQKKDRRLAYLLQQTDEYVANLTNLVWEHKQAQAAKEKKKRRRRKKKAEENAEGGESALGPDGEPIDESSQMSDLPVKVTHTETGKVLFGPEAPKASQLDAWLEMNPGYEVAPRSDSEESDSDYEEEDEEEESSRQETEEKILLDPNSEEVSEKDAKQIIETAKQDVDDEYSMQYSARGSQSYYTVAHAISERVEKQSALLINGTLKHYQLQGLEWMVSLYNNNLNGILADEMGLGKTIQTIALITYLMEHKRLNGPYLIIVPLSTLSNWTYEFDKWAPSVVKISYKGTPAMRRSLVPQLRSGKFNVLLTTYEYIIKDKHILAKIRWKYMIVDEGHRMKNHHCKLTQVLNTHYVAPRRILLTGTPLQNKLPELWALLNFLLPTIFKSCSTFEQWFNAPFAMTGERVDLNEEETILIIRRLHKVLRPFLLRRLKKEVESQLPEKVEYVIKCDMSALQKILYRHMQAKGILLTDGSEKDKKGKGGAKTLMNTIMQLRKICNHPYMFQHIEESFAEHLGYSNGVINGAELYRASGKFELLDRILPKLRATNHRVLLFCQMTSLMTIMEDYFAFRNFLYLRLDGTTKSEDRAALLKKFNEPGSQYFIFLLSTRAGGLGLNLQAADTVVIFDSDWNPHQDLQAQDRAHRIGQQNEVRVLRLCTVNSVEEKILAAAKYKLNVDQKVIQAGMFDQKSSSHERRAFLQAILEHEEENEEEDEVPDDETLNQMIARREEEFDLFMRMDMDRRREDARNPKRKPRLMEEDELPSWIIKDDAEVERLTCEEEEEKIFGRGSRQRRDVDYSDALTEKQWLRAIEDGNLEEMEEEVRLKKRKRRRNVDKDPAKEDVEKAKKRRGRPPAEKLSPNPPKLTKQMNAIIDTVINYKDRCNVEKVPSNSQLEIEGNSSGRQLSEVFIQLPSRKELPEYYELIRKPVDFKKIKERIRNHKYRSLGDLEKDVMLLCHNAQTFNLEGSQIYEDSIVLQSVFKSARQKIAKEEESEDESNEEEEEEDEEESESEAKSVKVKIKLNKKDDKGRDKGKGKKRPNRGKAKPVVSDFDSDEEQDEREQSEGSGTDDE
assay_overview: ATPase catalytic activity assay (ADP-Glo), BRM
run_parameters: 30 nM BRM, 400 μM ATP
Answers are plain numbers, in %.

C[C@@]1(C#N)COCc2ccc(C(=O)NCc3cc4nc(-c5cnc(N6CCC6)cn5)ccc4cn3)cc21 = 91
C[C@@]1(C#N)COCc2ccc(C(=O)NCc3cc4nn(-c5cccc(N6CCC6)n5)cc4cn3)cc21 = 91

## Input Identify measured BRM Max % Inhibition corresponding to "C[C@@]1(C#N)COCc2ccc(C(=O)NCc3cc4nc(-c5cccc6c5ccn6CC(F)F)ccc4cn3)cc21"
## Output 101
